experiment: Acid resistance (half-life period)
Type: physicochemical
conditions: acid ph 1.3; Temperature 37° C, pH 1.3; Table 3, cyclobutyl series; read-out: τ1/2 half-life period (acid resistance)
Response field label takes class 1 when half-life is strictly below 20 min and class 0 in all other cases.

Example entries and their recorded answers appear below.
{"columns": ["compound", "labelClass"],
 "data": [
  ["CCCCOc1ccccc1C1(C(=O)N[C@@H]2C(=O)N3[C@@H]2SC(C)(C)[C@@H]3C(=O)O)CCC1 [Compound VI (Table 3)]", "class 0"],
  ["CC1(C)S[C@@H]2[C@H](NC(=O)C3(c4ccccc4)CCC3)C(=O)N2[C@H]1C(=O)O [Compound I (Table 3)]", "class 0"],
  ["COc1cccc(C2(C(=O)N[C@@H]3C(=O)N4[C@@H]3SC(C)(C)[C@@H]4C(=O)O)CCC2)c1 [Compound VII (Table 3)]", "class 0"]
]}

Now for a further compound.
[ask] Please state whether half-life is below 20 min for CC(C)Oc1ccccc1C1(C(=O)N[C@@H]2C(=O)N3[C@@H]2SC(C)(C)[C@@H]3C(=O)O)CCC1 [Compound V (Table 3)]
[reply] class 1

###

experiment: Acid resistance (half-life period)
Format: physicochemical
conditions: acid ph 1.3; Temperature 37° C, pH 1.3; Table 2, cyclopropyl series; read-out: τ1/2 half-life period (acid resistance)
Measured half-life, listed per entry for reference.
Give your result in min as a bare value.

[ask] Give the measured half-life of COc1ccccc1C1(C(=O)NC2C(=O)N3C2SC(C)(C)C3C(=O)O)CC1 (centres unmarked) .
[reply] 5

[ask] Give the measured half-life of CCCOc1ccc(C2(C(=O)N[C@@H]3C(=O)N4[C@@H]3SC(C)(C)[C@@H]4C(=O)O)CC2)cc1 .
[reply] 19.4

[ask] Give the measured half-life of CCOc1ccc(C2(C(=O)N[C@@H]3C(=O)N4[C@@H]3SC(C)(C)[C@@H]4C(=O)O)CC2)cc1 .
[reply] 6.7

###

Tested on: Staph. albus
measurementType: MIC (µg/mL)
Give your result in µg/mL as a bare value.

[ask] Give the measured MIC of CC1(C)SC2C(NC(=O)C3(c4ccccc4)CCCC3)C(=O)N2C1C(=O)O (stereo not shown) [Compound I (Table 1), 1-Phenylcyclopentyl-1-Penicillin] .
[reply] 0.048

[ask] Give the measured MIC of CCCCOc1ccccc1C1(C(=O)NC2C(=O)N3C2SC(C)(C)C3C(=O)O)CCCC1 (stereo not shown) [Compound VI (Table 1)] .
[reply] 0.19

[ask] Give the measured MIC of CC1(C)S[C@@H]2[C@H](NC(=O)Cc3ccccc3)C(=O)N2[C@H]1C(=O)O [Benzyl Penicillin, benzylpenicillin, reference compound] .
[reply] 0.006

[ask] Give the measured MIC of CC(C)Oc1cccc(C2(C(=O)NC3C(=O)N4C3SC(C)(C)C4C(=O)O)CCCC2)c1 (stereo not shown) [Compound X (Table 1)] .
[reply] 0.19

[ask] Give the measured MIC of CCOc1ccc(C2(C(=O)NC3C(=O)N4C3SC(C)(C)C4C(=O)O)CCCC2)cc1 (stereo not shown) [Compound XIII (Table 1)] .
[reply] 0.09

[ask] Give the measured MIC of CC(C)Oc1ccccc1C1(C(=O)NC2C(=O)N3C2SC(C)(C)C3C(=O)O)CCCC1 (stereo not shown) [Compound V (Table 1)] .
[reply] 0.39

[ask] Give the measured MIC of CCCCOc1ccc(C2(C(=O)NC3C(=O)N4C3SC(C)(C)C4C(=O)O)CCCC2)cc1 (stereo not shown) [Compound XVI (Table 1)] .
[reply] 0.19

###

Test system: E.typhi
measurementType: MIC (µg/mL)
Give your result in µg/mL as a bare value.

Consider the reported MIC for these compounds:
{"columns": ["compound", "val"],
 "data": [
  ["CC1(C)S[C@@H]2[C@H](NC(=O)Cc3ccccc3)C(=O)N2[C@H]1C(=O)O [Benzyl Penicillin, benzylpenicillin, reference compound]", 0.39],
  ["CCOc1ccc(C2(C(=O)NC3C(=O)N4C3SC(C)(C)C4C(=O)O)CCCC2)cc1 (stereo not shown) [Compound XIII (Table 1)]", 7.8],
  ["CCCCOc1ccc(C2(C(=O)NC3C(=O)N4C3SC(C)(C)C4C(=O)O)CCCC2)cc1 (stereo not shown) [Compound XVI (Table 1)]", 15.6],
  ["CCCOc1cccc(C2(C(=O)NC3C(=O)N4C3SC(C)(C)C4C(=O)O)CCCC2)c1 (stereo not shown) [Compound IX (Table 1)]", 15.6]
]}

[ask] Form: Entry = CCOc1ccccc1C1(C(=O)NC2C(=O)N3C2SC(C)(C)C3C(=O)O)CCCC1 (stereo not shown) [Compound III (Table 1)] | System = E.typhi | MIC = ____
[reply] 62.5

[ask] Form: Entry = CC(C)Oc1cccc(C2(C(=O)NC3C(=O)N4C3SC(C)(C)C4C(=O)O)CCCC2)c1 (stereo not shown) [Compound X (Table 1)] | System = E.typhi | MIC = ____
[reply] 15.6

[ask] Form: Entry = COc1ccc(C2(C(=O)NC3C(=O)N4C3SC(C)(C)C4C(=O)O)CCCC2)cc1 (stereo not shown) [Compound XII (Table 1)] | System = E.typhi | MIC = ____
[reply] 7.8

###

Tested on: Prot.vulgaris
Response field label takes true when MIC is strictly below 100 µg/mL and false in all other cases.

Example entries and their recorded answers appear below.
{"columns": ["compound", "labelClass"],
 "data": [
  ["CC1(C)SC2C(NC(=O)C3(c4ccccc4)CCCC3)C(=O)N2C1C(=O)O (centres unmarked)", "false"],
  ["CCCOc1ccc(C2(C(=O)NC3C(=O)N4C3SC(C)(C)C4C(=O)O)CCCC2)cc1 (centres unmarked)", "true"],
  ["CCCCOc1ccc(C2(C(=O)NC3C(=O)N4C3SC(C)(C)C4C(=O)O)CCCC2)cc1 (centres unmarked)", "false"]
]}

[ask] Please state whether MIC is below 100 µg/mL for CCOc1ccc(C2(C(=O)NC3C(=O)N4C3SC(C)(C)C4C(=O)O)CCCC2)cc1 (centres unmarked)
[reply] true

[ask] Please state whether MIC is below 100 µg/mL for CC(C)Oc1cccc(C2(C(=O)NC3C(=O)N4C3SC(C)(C)C4C(=O)O)CCCC2)c1 (centres unmarked)
[reply] false

[ask] Please state whether MIC is below 100 µg/mL for CCCCOc1ccccc1C1(C(=O)NC2C(=O)N3C2SC(C)(C)C3C(=O)O)CCCC1 (centres unmarked)
[reply] false

[ask] Please state whether MIC is below 100 µg/mL for CCOc1ccccc1C1(C(=O)NC2C(=O)N3C2SC(C)(C)C3C(=O)O)CCCC1 (centres unmarked)
[reply] false

[ask] Please state whether MIC is below 100 µg/mL for CC1(C)S[C@@H]2[C@H](NC(=O)Cc3ccccc3)C(=O)N2[C@H]1C(=O)O [Benzyl Penicillin, benzylpenicillin, reference compound]
[reply] true

###

Test system: Vibrion Metschnicoff
experiment: Minimal bacteriostatic concentration
Format: cell-based
conditions: Vibrion Metschnicoff; sodium salts; read-out: Minimal Bacteriostatic Concentration
Measured MIC, listed per entry for reference.
Give your result in µg/mL as a bare value.

Consider the reported MIC for these compounds:
{"columns": ["compound", "measurementType", "val"],
 "data": [
  ["CC(C)Oc1cccc(C2(C(=O)NC3C(=O)N4C3SC(C)(C)C4C(=O)O)CCCC2)c1 (stereo not shown)", "MIC", 3.9],
  ["CCOc1cccc(C2(C(=O)NC3C(=O)N4C3SC(C)(C)C4C(=O)O)CCCC2)c1 (stereo not shown)", "MIC", 3.9],
  ["CCCCOc1ccccc1C1(C(=O)NC2C(=O)N3C2SC(C)(C)C3C(=O)O)CCCC1 (stereo not shown)", "MIC", 1.56],
  ["CCCOc1ccc(C2(C(=O)NC3C(=O)N4C3SC(C)(C)C4C(=O)O)CCCC2)cc1 (stereo not shown)", "MIC", 0.9],
  ["CC(C)Oc1ccccc1C1(C(=O)NC2C(=O)N3C2SC(C)(C)C3C(=O)O)CCCC1 (stereo not shown)", "MIC", 0.9]
]}

[ask] Give the measured MIC of CCOc1ccccc1C1(C(=O)NC2C(=O)N3C2SC(C)(C)C3C(=O)O)CCCC1 (stereo not shown) .
[reply] 0.9

[ask] Give the measured MIC of CC(C)Oc1ccc(C2(C(=O)NC3C(=O)N4C3SC(C)(C)C4C(=O)O)CCCC2)cc1 (stereo not shown) .
[reply] 0.48

###

experiment: in vivo
conditions: mouse, iv
Measured MTD, listed per entry for reference.

Consider the reported MTD for these molecules:
{"columns": ["molecule", "MTD"],
 "data": [
  ["CCCOc1ccccc1C1(C(=O)N[C@@H]2C(=O)N3[C@@H]2SC(C)(C)[C@@H]3C(=O)O)CCC1", "500 mg/kg"],
  ["CCOc1ccc(C2(C(=O)N[C@@H]3C(=O)N4[C@@H]3SC(C)(C)[C@@H]4C(=O)O)CCC2)cc1", "1000 mg/kg"],
  ["CC(C)Oc1ccccc1C1(C(=O)NC2C(=O)N3C2SC(C)(C)C3C(=O)O)CCCC1 (centres unmarked)", "1000 to 1500 mg/kg"],
  ["CCCCOc1ccccc1C1(C(=O)NC2C(=O)N3C2SC(C)(C)C3C(=O)O)CCCC1 (centres unmarked)", "1000 mg/kg"]
]}

Now look at this entry.
[ask] Give the measured MTD of CC(C)Oc1cccc(C2(C(=O)N[C@@H]3C(=O)N4[C@@H]3SC(C)(C)[C@@H]4C(=O)O)CC2)c1 .
[reply] 500 mg/kg
